Would you kindly list DC50 for each of these compounds?
molecular target: PHFs from K18 (Homo sapiens); construct: made in house; host or cells: E. coli; test: Thioflavine S assay, depolymerisation of pre-formed PHFs, K18; assay type: biochemical; details: ThS fluorescence, overnight 37° C., read-out: Depolymerisation of PHFs DC50, K18
Sequence (P10636 561-685 limits assumed): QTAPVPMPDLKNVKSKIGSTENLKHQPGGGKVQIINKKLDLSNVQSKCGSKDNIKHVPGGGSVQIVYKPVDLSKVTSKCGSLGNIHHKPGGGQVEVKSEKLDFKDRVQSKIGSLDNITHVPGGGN
Numbers only, in µM.

Recorded results for 3 compounds are shown here.
| COMPOUND | VALUE UNIT | NUMBER |
| --- | --- | --- |
| O=C(c1ccccc1)c1ccc(O)c(O)c1O | µM | 20.8 |
| O=C1c2ccc(O)c(O)c2C(=O)c2c(O)ccc(O)c21 [PHF016, 1,2,5,8-Tetrahydroxy-anthraquinone] | µM | 7.3 |
| COc1cccc2c1C(=O)c1c(O)c3c(c(O)c1C2=O)CC(O)(C(C)=O)CC3OC1CC(N)C(O)C(C)O1 (stereo not shown) [Daunorubicin, reference compound] | µM | 4 |

Continue with the next compound.
Value of measured DC50 for the entry Cc1cc(O)c2c(c1)C(=O)c1cc(O)cc(O)c1C2=O [Emodin, 1,3,8-Trihydroxy-6-methyl-anthraquinone] : 2

---

biological target: htau23 (Homo sapiens); construct: made in house; host or cells: E. coli; assay: Thioflavine S assay, inhibition of PHF formation, htau23; type: biochemical; conditions: ThS fluorescence; read-out: Inhibition of tau aggregation IC50, hTau23
Sequence (P10636 1-352 isoform P10636-2): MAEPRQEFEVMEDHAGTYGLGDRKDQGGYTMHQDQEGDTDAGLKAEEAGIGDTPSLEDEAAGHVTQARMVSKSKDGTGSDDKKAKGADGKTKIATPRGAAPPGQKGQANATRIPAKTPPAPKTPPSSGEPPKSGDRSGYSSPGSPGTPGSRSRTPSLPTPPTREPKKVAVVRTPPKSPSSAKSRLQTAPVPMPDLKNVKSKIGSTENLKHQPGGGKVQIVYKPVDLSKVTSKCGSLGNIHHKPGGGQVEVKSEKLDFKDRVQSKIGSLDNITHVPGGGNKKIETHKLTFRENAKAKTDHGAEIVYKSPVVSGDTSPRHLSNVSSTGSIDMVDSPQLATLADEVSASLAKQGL
MEASURED METRIC: IC50
Form field: result (number plus unit)

Recorded results for 3 compounds are shown here.
| COMPOUND | ASSAY TARGET | IC50 |
| --- | --- | --- |
| COc1cccc2c1C(=O)c1c(O)c3c(c(O)c1C2=O)CC(O)(C(C)=O)CC3OC1CC(N)C(O)C(C)O1 (stereo not shown) [Daunorubicin, reference compound] | htau23 (Homo sapiens) | 0.1 µM |
| O=C(c1ccccc1)c1ccc(O)c(O)c1O [PHF005] | htau23 (Homo sapiens) | 1.1 µM |
| Cc1cc(O)c2c(c1)C(=O)c1cc(O)cc(O)c1C2=O [Emodin, 1,3,8-Trihydroxy-6-methyl-anthraquinone] | htau23 (Homo sapiens) | 0.2 µM |

Continue with the next compound.
Value of measured IC50 for the entry O=C1c2ccc(O)c(O)c2C(=O)c2c(O)ccc(O)c21 [PHF016, 1,2,5,8-Tetrahydroxy-anthraquinone] : 1 µM

---

target: PHFs from K19 (Homo sapiens, UniProt P10636); construct: construct K19 containing three repeats; made in house; host or cells: E. coli; assay: Thioflavine S assay, depolymerisation of pre-formed PHFs, K19; assay type: biochemical; conditions: ThS fluorescence, overnight 37° C., read-out: Depolymerisation of PHFs DC50, K19
Sequence (P10636 with tags, fused parts or gaps isoform P10636-2 limits assumed): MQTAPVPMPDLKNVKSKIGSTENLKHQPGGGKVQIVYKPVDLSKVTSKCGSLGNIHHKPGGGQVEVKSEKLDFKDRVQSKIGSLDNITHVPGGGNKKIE
Would you kindly list DC50 for each of these compounds?
Answers are plain numbers, in µM.

Recorded results for 3 compounds are shown here.
| COMPOUND | ASSAY TARGET | DC50 / µM |
| --- | --- | --- |
| O=C(c1ccccc1)c1ccc(O)c(O)c1O [PHF005] | PHFs from K19 (Homo sapiens, UniProt P10636) | 9.4 |
| COc1cccc2c1C(=O)c1c(O)c3c(c(O)c1C2=O)CC(O)(C(C)=O)CC3OC1CC(N)C(O)C(C)O1 (stereo not shown) [Daunorubicin, reference compound] | PHFs from K19 (Homo sapiens, UniProt P10636) | 3.1 |
| O=C1c2ccc(O)c(O)c2C(=O)c2c(O)ccc(O)c21 [PHF016, 1,2,5,8-Tetrahydroxy-anthraquinone] | PHFs from K19 (Homo sapiens, UniProt P10636) | 7.8 |

Value of measured DC50 for the entry Cc1cc(O)c2c(c1)C(=O)c1cc(O)cc(O)c1C2=O [Emodin, 1,3,8-Trihydroxy-6-methyl-anthraquinone] : 2

---

Would you kindly list IC50 for each of these compounds?
biological target: UniProt:P10636; assay: Thioflavine S assay, inhibition of PHF formation, htau24; settings: ThS fluorescence; read-out: Inhibition of tau aggregation IC50, hTau24
Answers are plain numbers, in µM.

| COMPOUND | IC50 [µM] |
| --- | --- |
| COc1cccc2c1C(=O)c1c(O)c3c(c(O)c1C2=O)CC(O)(C(C)=O)CC3OC1CC(N)C(O)C(C)O1 (centres unmarked) [Daunorubicin, reference compound] | 3.4 |
| COc1cccc2c1C(=O)c1c(O)c3c(c(O)c1C2=O)CC(O)(C(=O)CO)CC3OC1CC(N)C(O)C(C)O1 (centres unmarked) [Adriamycin, reference compound] | 2.7 |

Continue with the next compound.
Value of measured IC50 for the entry Cc1cc(O)c2c(c1)C(=O)c1cc(O)cc(O)c1C2=O [Emodin, 1,3,8-Trihydroxy-6-methyl-anthraquinone] : 1.8
